- Test system: human breast cancer cell line T-47D
- test name: Caspase cascade activation (EC50), T-47D
- Type: cell-based
- condition info: Homo sapiens; T47D cells; caspase cascade activation; read-out: caspase potency (EC50) T47D
The compounds listed here are annotated with their EC50.

In the examples that follow, each entry is paired with its recorded EC50.
# compound, EC50
measured = [
    ("COc1ccccc1-c1nnc2n1N=C(c1ccc(N)c(N)c1)CS2 [Example 60]", "> 10 µM"),
    ("CCN(CC)S(=O)(=O)c1ccc(C2=Nn3c(nnc3-c3ccccc3C)SC2)cc1 [Example 52]", "> 10 µM"),
]

## Task # query: EC50 of entry COc1ccc(-c2nn3c(-c4ccccc4OC)nnc3[nH]c2=O)cc1 [Example 36]
## Result > 10 µM
